I'd appreciate it if you could supply inhibition values for the items below.
Target: DNA topoisomerase 1 (Homo sapiens) (UniProt P11387)
Experiment: Inhibition of DNA topoisomerase 1 (unknown origin) assessed as reduction in relaxation of supercoiled pBR322 plasmid DNA at 100 uM incubated for 30 mins by agarose gel electrophoresis relative to control

compound="COc1ccc(C(O)C2=C3C=C[C@@H]4C[C@@]3(OC2=O)[C@H]2CCCCN42)cc1 (stereo partly specified)" parameter_measured=inhibition assay_result=31.6%
compound="O=C1O[C@@]23C[C@@H](C=CC2=C1C(O)c1ccccc1F)N1CCCC[C@@H]13 (stereo partly specified)" parameter_measured=inhibition assay_result=42.3%
compound="O=C1O[C@@]23C[C@@H](C=CC2=C1C(O)c1ccc(Cl)cc1)N1CCCC[C@@H]13 (stereo in doubt; 4a-3)" parameter_measured=inhibition assay_result=48.9%
compound="O=C1O[C@@]23C[C@@H](C=CC2=C1C(O)c1ccccc1Br)N1CCCC[C@@H]13 (stereo partly specified)" parameter_measured=inhibition assay_result=39.2%
compound="O=C1O[C@@]23C[C@@H](C=CC2=C1C(O)c1ccc([N+](=O)[O-])cc1)N1CCCC[C@@H]13 (stereo partly specified)" parameter_measured=inhibition assay_result=56.7%

Would you mind giving inhibition for every compound in the list below?
1. O=C1O[C@@]23C[C@@H](C=CC2=C1C(O)c1ccc(Br)cc1)N1CCCC[C@@H]13 (stereo in doubt; 4a-4)
2. O=C1O[C@@]23C[C@@H](C=CC2=C1C(O)c1ccc(F)cc1)N1CCCC[C@@H]13 (stereo in doubt; 4a-2)
3. N#Cc1ccc(C(O)C2=C3C=C[C@@H]4C[C@@]3(OC2=O)[C@H]2CCCCN42)cc1 (stereo in doubt; 4a-5)
4. O=C1O[C@@]23C[C@@H](C=CC2=C1C(O)c1ccc(F)cc1F)N1CCCC[C@@H]13 (stereo partly specified)
5. O=C1O[C@@]23C[C@@H](C=CC2=C1C(O)c1ccc(C(F)(F)F)cc1)N1CCCC[C@@H]13 (stereo in doubt; 4a-6)
6. N#Cc1ccccc1C(O)C1=C2C=C[C@@H]3C[C@@]2(OC1=O)[C@H]1CCCCN31 (stereo partly specified)

1. 47.1%
2. 49.8%
3. 45.7%
4. 37.4%
5. 53.6%
6. 38.4%

Hey, can you go through the list below and give me inhibition for every item?
1. O=C1O[C@@]23C[C@@H](C=CC2=C1C(O)c1ccccc1Cl)N1CCCC[C@@H]13 (stereo partly specified)
2. O=C1O[C@@]23C[C@@H](C=CC2=C1C(O)c1ccc(O)cc1)N1CCCC[C@@H]13 (stereo partly specified)
3. O=C1O[C@@]23C[C@@H](C=CC2=C1C(O)c1ccccc1)N1CCCC[C@@H]13 (stereo partly specified)
4. O=C1O[C@@]23C[C@@H](C=CC2=C1C(O)c1ccccc1[N+](=O)[O-])N1CCCC[C@@H]13 (stereo partly specified)
5. O=C1O[C@@]23C[C@@H](C=CC2=C1C(O)c1cccc(Br)c1)N1CCCC[C@@H]13 (stereo partly specified)

1: 42.4%; 2: 31.8%; 3: 24%; 4: 40.6%; 5: 34.7%

###

Molecular target: DNA topoisomerase 1 (Homo sapiens) (UniProt P11387)
Sequence (whole entry): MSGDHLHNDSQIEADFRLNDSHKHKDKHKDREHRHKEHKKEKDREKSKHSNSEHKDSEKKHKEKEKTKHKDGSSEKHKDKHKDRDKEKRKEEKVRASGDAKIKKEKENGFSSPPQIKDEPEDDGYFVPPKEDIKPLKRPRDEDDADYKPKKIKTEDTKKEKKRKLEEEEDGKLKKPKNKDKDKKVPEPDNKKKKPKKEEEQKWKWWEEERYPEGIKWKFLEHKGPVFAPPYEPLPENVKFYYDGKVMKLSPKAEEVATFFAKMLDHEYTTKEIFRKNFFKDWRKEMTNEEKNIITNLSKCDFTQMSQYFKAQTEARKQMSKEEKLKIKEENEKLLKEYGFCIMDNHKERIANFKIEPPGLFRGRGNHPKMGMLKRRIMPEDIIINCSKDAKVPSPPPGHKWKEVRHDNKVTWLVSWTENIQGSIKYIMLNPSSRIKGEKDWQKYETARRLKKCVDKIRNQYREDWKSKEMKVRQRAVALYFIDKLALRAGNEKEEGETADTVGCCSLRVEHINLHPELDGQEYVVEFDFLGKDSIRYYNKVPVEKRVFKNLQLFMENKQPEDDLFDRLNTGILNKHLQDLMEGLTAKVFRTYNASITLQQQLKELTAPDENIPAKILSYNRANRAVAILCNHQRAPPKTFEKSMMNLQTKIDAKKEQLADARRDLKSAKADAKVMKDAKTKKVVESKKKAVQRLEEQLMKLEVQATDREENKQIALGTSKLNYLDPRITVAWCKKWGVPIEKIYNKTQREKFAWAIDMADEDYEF
Assay: Inhibition of DNA topoisomerase 1 (unknown origin) assessed as reduction in relaxation of supercoiled pBR322 plasmid DNA at 100 uM incubated for 30 mins by agarose gel electrophoresis relative to control
PARAMETER MEASURED: inhibition (%)
Answers are plain numbers, in %.

Study these solved cases before continuing.
compound="CSc1ccc(C(O)C2=C3C=C[C@@H]4C[C@@]3(OC2=O)[C@H]2CCCCN42)cc1 (some centres undefined)" tested_target="DNA topoisomerase 1 (Homo sapiens) (UniProt P11387)" assay_result=30.9
compound="Cc1ccc(C(O)C2=C3C=C[C@@H]4C[C@@]3(OC2=O)[C@H]2CCCCN42)cc1 (some centres undefined)" tested_target="DNA topoisomerase 1 (Homo sapiens) (UniProt P11387)" assay_result=27.1
compound=O=C1C=C2C=C[C@@H]3C[C@@]2(O1)[C@H]1CCCCN31 tested_target="DNA topoisomerase 1 (Homo sapiens) (UniProt P11387)" assay_result=23.9

Kindly review the next compound as well.
# get_value(readout= inhibition, system= DNA topoisomerase 1 (Homo sapiens) (UniProt P11387)) for N#Cc1cccc(C(O)C2=C3C=C[C@@H]4C[C@@]3(OC2=O)[C@H]2CCCCN42)c1 (some centres undefined)
34.7

These data points were gathered from ChEMBL document CHEMBL3865794.
